These measurements were taken from PubChem BioAssay (NCI).

# Test system: SK-OV-3 ovarian
# Method: NCI-60 one-dose screen, 48 h
# Condition Details: 10 µM unless noted
This is part of a sample that, as a whole, favours compounds with a hit. Of some 83,000 tested, about 20% had one in any assay. Activity calls are given as the source filed them. Rule for the calls: active = growth percent below 10; inactive = the rest.
Valid outcomes are listed here; reply with one: 1 (yes) = active, 0 (no) = inactive

Compound	Discrete Label
CC1=N[C@@H]2CN(C(=O)OC(C)(C)C)C[C@@H]2n2c1cc1ccccc1c2=O	0 (no)

Q. Kindly provide the recorded test outcome for the following compound: CCn1c(SCC(=O)Nc2cccc(C(=O)/C=C/c3ccc(Br)cc3)c2)nc2ccccc2c1=O
A. 0 (no)

Q. Answer briefly: the call reported for CNC(=O)c1c(NC(=O)c2cccc(C(F)(F)F)c2F)sc2c1CCC(=O)C2 in this assay.
A. 1 (yes)

Q. Call for entry COc1cc2nc(Cl)nc(Nc3cccc(C4=Nc5c(N)nc(N)nc5NC(c5ccc6c(c5)OCO6)C4)c3)c2cc1OC (centres undefined) :
A. 0 (no)

Q. So what was the verdict on COc1ccc2c(c1)Oc1nc(N)c(C#N)c(N)c1C2Sc1ccc(C)cc1 (centres undefined) in this test?
A. 0 (no)

Q. Record request — test call for CCOC(=O)C1=NNC(c2ccc(Cl)cc2)C1C(=O)N1C(=S)NC(=O)C1CC(C)C (centres undefined)
A. 0 (no)

Q. For CC1(C)NCCC[C@]2(C)[C@H]3C/C(=N\O)C4[C@@H]5C[C@@](C)(CO)CC[C@]5(C)CC[C@@]4(C)[C@]3(C)CC[C@@H]12 (some centres undefined) , what call appears in the results of this test?
A. 0 (no)

Q. Hi team, can someone confirm the assay call for CCOC(=O)c1c(Nc2ccccc2)nn2c(-c3ccc(Cl)cc3)ccnc12 ?
A. 0 (no)

Q. Identify the outcome logged in this assay for the compound shown: Cc1ccc2sc3c(c2c1)OC(N)=C(C#N)C3c1ccc(Cl)cc1 (centres undefined)
A. 0 (no)

Q. Given COc1ccc(-c2nc3cccc(O)c3c(=O)n2Cc2ccccc2)cc1COc1ccc(NC(C)=O)cc1 , state the outcome it received in this test.
A. 0 (no)

Q. Please share the test call associated with C=C(C)[C@@H]1CC[C@]2(COCCCNCCC#N)CC[C@]3(C)[C@H](CC[C@@H]4[C@@]5(C)CC[C@H](OCCCNCCC#N)C(C)(C)[C@@H]5CC[C@]43C)[C@@H]12 .
A. 0 (no)

Q. Can you look up the reported call for COc1cccc2c1CN(C(=O)c1ccc(O)c(C(=O)N3Cc4ccc(OCCC[P+](c5ccccc5)(c5ccccc5)c5ccccc5)cc4C3)c1)C2 for me?
A. 0 (no)

Q. Look up the recorded call for CCCn1cnc2c(c1=N)C(c1ccc(F)cc1)c1sc3c(C)cccc3c1O2 (centres undefined) in this test.
A. 0 (no)

Q. Entry COc1ccc(-c2nc(C(Cl)Cl)nc3cc(-c4ccccc4)nn23)cc1 : call = ?
A. 1 (yes)

----------
# Test system: SW-620 colon
# Method: NCI-60 one-dose screen, 48 h
# Condition Details: 10 µM unless noted
This is part of a sample that, as a whole, favours compounds with a hit. Of some 83,000 tested, about 20% had one in any assay. Activity calls are given as the source filed them. The calls were made as follows: active = growth percent below 10; inactive = the rest.
The reply should be one of these categories: 1 (yes) (active), 0 (no) (inactive)

Example results:
Compound	Assay Target	Discrete Label
Cc1ccc(-n2cc(/C=N/NC(=O)c3nc(N)n[nH]3)c(-c3ccc(S(C)(=O)=O)cc3)n2)cc1	SW-620 colon	0 (no)
Nc1cc(F)ccc1NC(=O)c1ccc(NC(=O)C/C=C/c2cccnc2)cc1	SW-620 colon	0 (no)

Q. Hey, what did the test say about O=C(c1ccc(O)cc1)[C@@H]1CN[C@@]2(C(=O)Nc3ccccc32)[C@H]1c1ccc(F)cc1 ?
A. 0 (no)

Q. Could you kindly confirm the outcome this assay logged for COc1cc(-c2nn(C(C)(C)C)cc2-c2ccnc(NCCCNS(=O)(=O)c3ccccc3)n2)ccc1Cl ?
A. 0 (no)

Q. Hey, what did the test say about O=C1[C@H]2Cc3c([nH]c4ccccc34)[C@@H](c3ccc(Br)cc3)N2C(=O)CN1C1CCN(CC2CCCCC2)CC1 ?
A. 1 (yes)

Q. How was CS(=O)(=O)Nc1cc(-c2ccc3ncc(C#N)c(NCc4ccccc4)c3c2)cnc1Cl classified in this test?
A. 1 (yes)

Q. Test call for this compound, please: NC(N)=Nc1ccc(Oc2cccc(Nc3ccc(Cl)c(C(F)(F)F)c3)c2)cc1
A. 0 (no)

Q. Called result for COc1ccccc1NCc1cccn1Cc1ccc(F)cc1
A. 0 (no)

Q. In this assay, the call recorded for CN(C)CCNC(=O)c1ccc(-c2nc3ccc4[nH]ncc4c3c3c2COCC3)cc1 was what?
A. 1 (yes)

Q. Tell me the assay call for CCNC(=O)N1CCc2cc(OC)c(OCCc3ccc(OC)cc3)cc2C1c1ccc(Cl)cc1C (stereo not drawn) please.
A. 0 (no)

Q. Recorded call for N/C(=N\C(N)=N\c1nc2ccccc2s1)c1cccc(F)c1 ?
A. 0 (no)

Q. Each compound tested received a call. Report the one for Cc1ccc(CSc2nc(-c3ccc(Cl)cc3)c(C#N)c(N3CCNCC3)n2)cc1 .
A. 0 (no)

Q. What classification did Nc1ccccc1NC(=O)c1ccc(NC(=O)C/C=C/c2cccnc2)cc1 end up with in this test?
A. 0 (no)

----------
# Test system: SK-OV-3 ovarian
# Method: NCI-60 one-dose screen, 48 h (100 = growth as untreated, 0 = no growth, -100 = all killed)
# Condition Details: 10 µM unless noted
# Experimental: Growth inhibition of the SK-OV-3 human tumor cell line is measured as a screen for anti-cancer activity. Cells are grown in 96 well plates and exposed to the test compound for 48 hours. Compounds are tested at a single concentration, which is 10^-5 M for most compounds. The reported endpoint is percent growth (GI% or GIPRCNT), where numbers from 0 - 100% represent growth inhibition, and numbers from -100% - 0 represent cell death. For example, a value of 40 represents 60% growth inhibition. […]
This is part of a sample that, as a whole, favours compounds with a hit. Of some 83,000 tested, about 20% had one in any assay.
Overview of reported growth across a group of compounds:
Number in %, nothing else.

Solved entries:
Compound	Observed
COc1ccc2c(c1)c(-c1cc(N)n3nc(-c4cn(C)c5ccc(OC)cc45)cc3n1)cn2C	134
COc1ccc(-c2nc3cc(Cl)c(Cl)cc3n2CC(=O)N=Nc2c(O)[nH]c3ccc(OC)cc23)cc1	86.2
COC(=O)C(Cc1ccccc1)Nc1nc(NC(Cc2ccccc2)C(=O)OC)nc(N2CCOCC2)n1 (configuration not stated)	103
CCNC(=O)N1CCc2cc(OC)c(OCCc3ccc(OC)cc3)cc2C1c1ccc(OC)cc1C (configuration not stated)	45.9
CC/C(=C/c1cc(OC)ccc1O)c1ccc2cc(OC)ccc2[o+]1	60.2

Q. Read off the recorded growth for CC1(C)CC[C@]23CC[C@]4(C)[C@H](CC[C@@H]5[C@@]6(C)CCCN(CO)C(C)(C)[C@@H]6CC[C@]54C)[C@H]2[C@H]1OC3
A. 118

Q. Fill in growth for record C=CCN(C)S(=O)(=O)/N=C1\NC(=O)NC1=C(Cl)Cl
A. 104

Q. Write down growth measured for item C[C@@H](Nc1c(C#N)cnc2ccc(-c3cnc(Cl)c(NS(C)(=O)=O)c3)cc12)c1ccccc1
A. -7.04

----------
Below, each entry is listed with its recorded growth.
# Tested on: COLO 205 colon
# Method: NCI-60 one-dose screen, 48 h (100 = growth as untreated, 0 = no growth, -100 = all killed)
# Condition Details: 10 µM unless noted
Compounds without any hit were thinned out: in the full panel of roughly 83,000, 20% have a hit.
A number alone suffices; assume %.

Compound	U	growth
Clc1ccc(N/N=c2/oc3ccccc3cc2-c2cc3ccccc3[nH]2)cc1	%	95.8
Cc1ccc(-c2cc3nc(C(Cl)Cl)nc(-c4cccs4)n3n2)cc1	%	43.7
CC(=O)O[C@@H]1C(=O)N(c2cnccn2)[C@H]1c1ccccc1[N+](=O)[O-]	%	20.9
NC(=O)c1c(NC(=O)c2ccccc2C(F)(F)F)sc2c1CCC(=O)C2	%	38.3
O=C(NNc1nc2cc(F)cc(F)c2n2cccc12)c1cnccn1	%	6.31

Q. Answer with the recorded growth for the compound listed here: Cc1ccc(C2=Nn3c(nnc3-c3ccccc3)SC2)cc1
A. 3.27

Q. Please indicate growth recorded for C#CCOC(=O)[C@@H]1CCCN1CC#C
A. 88

Q. Return reported growth. Input compound: COc1ccc(NC(=O)CSc2nnc(-c3ccc4nc(-c5ccc(OC)c(OC)c5)[nH]c4c3)o2)cc1OC
A. 113

Q. Give growth for the following compound: C[C@H](CCC(=O)NCc1ccc(C(=O)Nc2ccccc2N)cc1)[C@H]1CC[C@H]2[C@@H]3[C@@H](O)C[C@@H]4C[C@H](O)CC[C@]4(C)[C@H]3CC[C@]12C
A. 65.2

Q. Specify measured growth for CNC(=O)c1cc(-c2ccc(NS(=O)(=O)c3ccc(C)cc3)cc2)nc2cccnc12 .
A. 116

Q. Answer with reported growth of N#Cc1cccc(NC(=O)c2cc(-c3ccc(F)cc3F)ccc2O)c1
A. 95.2

Q. Give the reported growth for this compound. O=C(CNc1nc(-c2cccc([N+](=O)[O-])c2)cs1)Nc1cccc([N+](=O)[O-])c1
A. -30.8

Q. Provide measured growth value, entry: COc1cccc2c1CN(C(=O)c1ccc(O)c(C(=O)N3Cc4ccc(OCCC[P+](c5ccccc5)(c5ccccc5)c5ccccc5)cc4C3)c1)C2
A. 54

Q. Look up and report measured growth for this entry: O=C1CCC(N2C(=O)c3ccc(NS(=O)(=O)c4ccccc4OC(F)(F)F)cc3C2=O)C(=O)N1 (stereo unspecified)
A. 20.5

Q. Look up and state reported growth for CC(C)(C)c1ccc(CC(=O)Nc2sc3c(c2C(N)=O)CCC(=O)C3)cc1
A. -34.4

Q. Give recorded growth. COC(=O)C(Cc1ccccc1)Nc1nc(NC(Cc2ccccc2)C(=O)OC)nc(N2CCOCC2)n1 (stereo unspecified)
A. 105
